targetOfAssay: Muscarinic acetylcholine receptor M2 (Homo sapiens)
Sequence (P08172 whole entry): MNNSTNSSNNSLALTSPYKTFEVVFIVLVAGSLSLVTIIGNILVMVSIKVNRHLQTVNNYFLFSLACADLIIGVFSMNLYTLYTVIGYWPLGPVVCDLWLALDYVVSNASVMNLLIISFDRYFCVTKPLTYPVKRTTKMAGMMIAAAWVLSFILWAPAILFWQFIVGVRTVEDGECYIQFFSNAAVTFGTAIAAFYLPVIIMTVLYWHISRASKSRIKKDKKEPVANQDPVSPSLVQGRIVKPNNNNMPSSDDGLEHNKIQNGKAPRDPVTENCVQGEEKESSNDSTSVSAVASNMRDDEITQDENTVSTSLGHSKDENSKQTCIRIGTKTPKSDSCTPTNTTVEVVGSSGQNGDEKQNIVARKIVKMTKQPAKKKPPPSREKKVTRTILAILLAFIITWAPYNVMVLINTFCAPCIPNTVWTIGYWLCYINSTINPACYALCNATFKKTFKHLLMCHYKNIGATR
assayProcedure: Inhibition of binding affinity to muscarinic receptor M2
measurementLabel: pKi
Please note pKi is a logarithmic value: minus log10 of concentration in mol/L. Answer with that number alone.

Noted for Cc1ncnc(C)c1C(=O)N1CCC(C)(N2CCN([C@@H](C)c3ccc(C(F)(F)F)cc3)[C@@H](C)C2)CC1 : its pKi reads 6.34
